- testMethodNotes: yeast display, Sf9 membrane polyspecificity reagent, FACS + sequencing; frameworks hold sequencing errors
parameter: polyreactivity (PSR sort gate)

sequencerecord=QVQLVESGGGLVQAGGSLRLSCAASGSTIVPNTMGWYRQAPGKERELVAGITSGGSTYYADSVKGRFTISRDNAKNTVYLQMNSLKPEDTAVYYCAADDGSTANEKLIHEYNYWGQGTQVTVSS result="low polyreactivity"
sequencerecord=QVQLVESGGGLVQAGGSLRLSCAASGSTSVQYAMGWYRQAPVKERELVAAIDRSGGSTSYADSVKGRFTISRDNANNTVYLQMNSLKPEDTAVYYCNADPVRSTYSYDYWGQGTQVTVSS result="low polyreactivity"

* * *

- testMethodNotes: yeast display, Sf9 membrane polyspecificity reagent, FACS + sequencing; frameworks hold sequencing errors
parameter: polyreactivity (PSR sort gate)

Would you please look over these solved cases?
sequencerecord=QVQLVESGGGLVKAGVSLRLSSDASGRTFALYAMGWYRQAPGKERELVASIRGGGGTNYADSVKGRFTISRDNAKNTVYLQMNSLKPEDTAVYYCAARGYGYRGYYYWGQGTQVTVSS parameter="polyreactivity (PSR sort gate)" result="high polyreactivity"
sequencerecord=QVQLVESGGGLVQAGGSLRLSCAASGNTFVRYAMGWYRQAPGKERELVAAITRSGSSTYYADSVKGRFTISRDNAKNTVYLQMNSLKPEDTAVYYCAAYSWYYAGYDYWGQGTQVTVSS parameter="polyreactivity (PSR sort gate)" result="high polyreactivity"
sequencerecord=QVQLVESGGVLVQAGGSLRLSCAASGLIFATYAMGWSRQAPGKERELVAAISSNGDRTYYADSVKGGFTISRDNAKNTVYLQMNCLKPEDTAVYYCARLYLVQSRYPEMDFWGQGTQVTVSS parameter="polyreactivity (PSR sort gate)" result="high polyreactivity"
sequencerecord=QVQLVESGGGLVQAGGSLRLSCAASGSIFHPYAMGWYRQAPGKERELVAAISKSGGNTYYADSVKGRFTISRDNAKNTVYLQMNSLKPEDTAVYYCAALDYWGQGTLVTVSS parameter="polyreactivity (PSR sort gate)" result="low polyreactivity"

Value of measured polyreactivity (PSR sort gate) for the entry QVQLVESGGGLVQAGGSLRLSCAASGRIFPTNAMGWYRQAPGKERELVAGISSSGGSTYYADSVKGRFTISRDNAKNTVYLQMNSLKPEDTAVYYCNAVGYQYLRVYYWGQGTQVTVSS : low polyreactivity

Value of measured polyreactivity (PSR sort gate) for the entry QVQLVESRGGLVQAGGSLRLSCAASGRTFGGYAMGWYRQAPGKERELVAAISTRGGTTYYADSVKGRFTISRDNAKNTVYLQMNSLKPEDTAVYYCAAVYLYYYNRYYYWGQGSQVTVSS : high polyreactivity

Value of measured polyreactivity (PSR sort gate) for the entry QVQLVESGGGLVQAGGSLRLSCAASGSIFGANAMGWYRQAPGKERELVAAISTRGGRTYYADSVKARFTISRDNAKNTVSLQMNSLKPEDTALYYCAARRFSKVRSMYYWRQGTQVTVSS : high polyreactivity

Value of measured polyreactivity (PSR sort gate) for the entry QVHLVESGGGLVQAGGSLRLSCAASGSTFRPYAMGWYRQAPGKERELVAAITGSGGSTYYADSVKGRFTISRDNAKNTVYLQMISLKPEDTAVYYCNAVSTWRYYYWGQGTQVTVSS : high polyreactivity

Value of measured polyreactivity (PSR sort gate) for the entry QVQLVESGGGLVQAGGSLRLSCAASGSILSKNAMGWYRQAPGKERELVAAITWSGGSTYYADSVKGRFTISRDNAKNTVYLQMNSLKPEDTAVYYCAADLDWSPHFGLPYDYWGQGTQVTVSS : low polyreactivity

Value of measured polyreactivity (PSR sort gate) for the entry QVQLVESGGCLVQAGGSLRLSCAATGSTLGSYAMGWYRQAPGKERELVAAITFLGGSTYYADSVKGRFTSSRDNAKNTVYLQMNSLKPEDSAVYYCAARFLRVLFNLVFIYDYWGQGSQVTVSS : high polyreactivity

Value of measured polyreactivity (PSR sort gate) for the entry QVQLVESGGGLVQAGGSLRLSCAASGSIFGPYAMGWYRQAPGKERELVAAISTRGGRTYYADSVKGRFTISRDNAKNTVYLQMNSLKPEDTAVYYCNARRSDSRSYDYWGQGTQVTVSS : high polyreactivity

* * *

- testMethodNotes: yeast display, Sf9 membrane polyspecificity reagent, FACS + sequencing; frameworks hold sequencing errors
parameter: polyreactivity (PSR sort gate)

Would you please look over these solved cases?
sequencerecord=QVQLVESGGGLVQAGGSLRLSCAASGRTYQDNAMGWYRQEPGTERELVAAISFNSDSTYYADSVKGRFTISRDNAKNTVYLQMNSLKPEDTAVYYCAAQVVPTLYLRPLDYWGQGTQVTVSS result="low polyreactivity"
sequencerecord=QVQLVESGGGLVQAGGSLRLSCAASGFTFYKYTMGWYRQAPGKERELVAAISARGGSTYYADSVKGRFTISRDNAKNTVYLQMNSLKPEDTAVYYCAADYWRTYVLGYDYWGQGTQVTVSS result="high polyreactivity"
sequencerecord=QVQLVESGGGLVQAGGSLRLSCAASGNIFTGNDMGWYRQAPGKERELVAAISKRGGSTFYADSVKGRFTISRDNAKNTVYLQMNSLKPEDTEGYYCNALRRGVRDPYGYWGQGTQVTVSS result="high polyreactivity"
sequencerecord=QDQLVESGGGLVQAGCSLRLSCAASGSTFRTYAMGWYRQAPGKERDLVAAIRRGGSTKYADSVKGRFTISRDNAKYTVYLQINSLIPEDTELYYCAAVTYVPRSTNGISLYDYWGQGTQVTVSS result="high polyreactivity"
sequencerecord=QVQLVESGGVLVQAGGRLSLICAASGRTFARYVMGWYRKAPGKERELVAAINSGGTTYYADSVKGRFTISRDNAKNTVYLQMNSLKPEDTAVYYCNARRGHYAYDYWGQGTQVTVSS result="high polyreactivity"
sequencerecord=QVQLVESGGGLVQAGGSLRLSCAASGGIFGYNMGWNRQAPGKEWELVAAITSGGITNYADSVKGRFTISRDNAKNTVYLQMNSLKPQDTAVNYCNRSPGGGKETVLGGDYWGQGTQVTVSS result="low polyreactivity"

Value of measured polyreactivity (PSR sort gate) for the entry QVQLVESGGGLVQAGGSLRLSCAASGSTSYNAMGWYRQAPGKERELVAAISDGGGSTYYADSVKGRFTISRDNAKNTVYLQMISLKPEDTAVYYCAADTITGDGYWAQGTQVTVSS : low polyreactivity

Value of measured polyreactivity (PSR sort gate) for the entry QVQLVESGGGLVQAGGSLRLSCAASGIIFASYALGWYRQAPGKERELVAAISGGGSTYYADSVKGRFTISRDNAKNTVYLQMNSLKPEDTAVYYCNADVTLRLWAYYYYRYNYWGQGTQVTVSS : low polyreactivity

Value of measured polyreactivity (PSR sort gate) for the entry QVQLVESGGGLVQAGGSLRLSCAASGRTFCTNAMGWYRQAPGTERELVAVISGSTGSTYYADSVKGRFTISRDNAKNTVYLQMNSLKPEDTAVYYCAASYRNTGRWSYRGDYWGQGTQVTVSS : high polyreactivity

Value of measured polyreactivity (PSR sort gate) for the entry QVQLVESGGGLVQAGGSLRLSCAASGLTFRAYTMGWYRQAPGKERELVAAISRSGGSTYYADSVKGRFTISRDNAKNTVYLQMNSLKPEDTAVYYCAAPGYQTVGMGYWGQGTQVTVSS : high polyreactivity

Value of measured polyreactivity (PSR sort gate) for the entry QVQLVESGGGLVQSGGSLRLSCAASGSTFSTYAMGWYRQAPGKERQLVAGITGSGGRTYYADSVKGRFTISRDNAKHTVYLQMNSMKPEDTGVYYCAASTRGYKWVGRDYDYWGQGTQVTVSS : high polyreactivity

* * *

- testMethodNotes: yeast display, Sf9 membrane polyspecificity reagent, FACS + sequencing; frameworks hold sequencing errors
parameter: polyreactivity (PSR sort gate)

sequencerecord=QVQLVESGGGLVQAGGSLRLSCAASGFTFIWYAMGWYRQAPGKETELVATISWNGGRTYYADSVKGRFTISRDNANNTVYLQMNSLKPEDTAVYYCAADQGVYRTYWFDYWGQGTQVAVSS result="high polyreactivity"
sequencerecord=QVQLVESGGGLVQAGGSLRLICAASGSTIGTNAMGWYRQAPGKERELVAAISRSGGRTYYADSVKGRFTISRDNAKNTVYLQMNSLKPEDTAVYYCAKAGLYTEYDYWGQGTQVTVSS result="high polyreactivity"
sequencerecord=QVQLVESGGGLVQAGGSLRLSCAASGIIFDVYAMGWYRQAPGKERELVAAISKRGGRTYYADSVKGRFTISRDNAKNTVYLQMNSLKPEDTAVYYCAADGQYKHFDYWGQGTQVTVSS result="high polyreactivity"

* * *

- testMethodNotes: yeast display, Sf9 membrane polyspecificity reagent, FACS + sequencing; frameworks hold sequencing errors
parameter: polyreactivity (PSR sort gate)

sequencerecord=QVQLVESGGGLVQAGGSLRLSCAASGRIFGQNVMGWYRQAPGKERELVAAITSAGRTYYADSVKGRFTISRDNAKNTVYLQMNSLKPEDTAVYYCAKVVSRKGYGYWGQGTQVTVSS parameter="polyreactivity (PSR sort gate)" result="high polyreactivity"
sequencerecord=QVQLVESGGGLVQAGGSLSLSCAASGLTFSAYAMGWYRQAPGKERELVAAISSGVSTNYADSVKGRFTISRDNAKNSVYLQMNSLKPEDTAVYYCKAEYWGAYEYWGQGTQVTVSS parameter="polyreactivity (PSR sort gate)" result="high polyreactivity"
